- experimental_system: UniProt Q15858
- assay_remarks: E-VIPR optical membrane potential assay with electrical stimulation
- experimental_context: active against one or more sodium channels; Table 3 does not name the assay or NaV subtype; read-out: Binned Activity Data (IC50)
measured_metric: IC50

compound	measured_metric	test_value
COc1ccc(C(=O)N2CCC3(CC2)c2ccc(C(F)(F)F)n2CCN3C)cc1OC	IC50	> 5000 nM

Documented IC50 of CC(=O)c1ccc2n1CC(C)(C)NC21CCN(C(=O)c2ccc(C3CCCCC3)cc2)CC1 : ≤ 2000 nM

Documented IC50 of CCCCOc1ccc(C(=O)N2CCC3(CC2)c2ccc(Cl)n2CCN3C)cc1OC : ≤ 2000 nM

Documented IC50 of COc1cc(C(=O)N2CC[C@@]3(c4ccc(C(F)(F)F)n4CCN3C)[C@H](F)C2)ccc1OC(C)C [Compound 88] : 2000 to 5000 nM

----------
- experimental_system: human NaV subtype, like NaV 1.7 (Homo sapiens, UniProt Q15858)
- Sequence (Q15858 whole entry): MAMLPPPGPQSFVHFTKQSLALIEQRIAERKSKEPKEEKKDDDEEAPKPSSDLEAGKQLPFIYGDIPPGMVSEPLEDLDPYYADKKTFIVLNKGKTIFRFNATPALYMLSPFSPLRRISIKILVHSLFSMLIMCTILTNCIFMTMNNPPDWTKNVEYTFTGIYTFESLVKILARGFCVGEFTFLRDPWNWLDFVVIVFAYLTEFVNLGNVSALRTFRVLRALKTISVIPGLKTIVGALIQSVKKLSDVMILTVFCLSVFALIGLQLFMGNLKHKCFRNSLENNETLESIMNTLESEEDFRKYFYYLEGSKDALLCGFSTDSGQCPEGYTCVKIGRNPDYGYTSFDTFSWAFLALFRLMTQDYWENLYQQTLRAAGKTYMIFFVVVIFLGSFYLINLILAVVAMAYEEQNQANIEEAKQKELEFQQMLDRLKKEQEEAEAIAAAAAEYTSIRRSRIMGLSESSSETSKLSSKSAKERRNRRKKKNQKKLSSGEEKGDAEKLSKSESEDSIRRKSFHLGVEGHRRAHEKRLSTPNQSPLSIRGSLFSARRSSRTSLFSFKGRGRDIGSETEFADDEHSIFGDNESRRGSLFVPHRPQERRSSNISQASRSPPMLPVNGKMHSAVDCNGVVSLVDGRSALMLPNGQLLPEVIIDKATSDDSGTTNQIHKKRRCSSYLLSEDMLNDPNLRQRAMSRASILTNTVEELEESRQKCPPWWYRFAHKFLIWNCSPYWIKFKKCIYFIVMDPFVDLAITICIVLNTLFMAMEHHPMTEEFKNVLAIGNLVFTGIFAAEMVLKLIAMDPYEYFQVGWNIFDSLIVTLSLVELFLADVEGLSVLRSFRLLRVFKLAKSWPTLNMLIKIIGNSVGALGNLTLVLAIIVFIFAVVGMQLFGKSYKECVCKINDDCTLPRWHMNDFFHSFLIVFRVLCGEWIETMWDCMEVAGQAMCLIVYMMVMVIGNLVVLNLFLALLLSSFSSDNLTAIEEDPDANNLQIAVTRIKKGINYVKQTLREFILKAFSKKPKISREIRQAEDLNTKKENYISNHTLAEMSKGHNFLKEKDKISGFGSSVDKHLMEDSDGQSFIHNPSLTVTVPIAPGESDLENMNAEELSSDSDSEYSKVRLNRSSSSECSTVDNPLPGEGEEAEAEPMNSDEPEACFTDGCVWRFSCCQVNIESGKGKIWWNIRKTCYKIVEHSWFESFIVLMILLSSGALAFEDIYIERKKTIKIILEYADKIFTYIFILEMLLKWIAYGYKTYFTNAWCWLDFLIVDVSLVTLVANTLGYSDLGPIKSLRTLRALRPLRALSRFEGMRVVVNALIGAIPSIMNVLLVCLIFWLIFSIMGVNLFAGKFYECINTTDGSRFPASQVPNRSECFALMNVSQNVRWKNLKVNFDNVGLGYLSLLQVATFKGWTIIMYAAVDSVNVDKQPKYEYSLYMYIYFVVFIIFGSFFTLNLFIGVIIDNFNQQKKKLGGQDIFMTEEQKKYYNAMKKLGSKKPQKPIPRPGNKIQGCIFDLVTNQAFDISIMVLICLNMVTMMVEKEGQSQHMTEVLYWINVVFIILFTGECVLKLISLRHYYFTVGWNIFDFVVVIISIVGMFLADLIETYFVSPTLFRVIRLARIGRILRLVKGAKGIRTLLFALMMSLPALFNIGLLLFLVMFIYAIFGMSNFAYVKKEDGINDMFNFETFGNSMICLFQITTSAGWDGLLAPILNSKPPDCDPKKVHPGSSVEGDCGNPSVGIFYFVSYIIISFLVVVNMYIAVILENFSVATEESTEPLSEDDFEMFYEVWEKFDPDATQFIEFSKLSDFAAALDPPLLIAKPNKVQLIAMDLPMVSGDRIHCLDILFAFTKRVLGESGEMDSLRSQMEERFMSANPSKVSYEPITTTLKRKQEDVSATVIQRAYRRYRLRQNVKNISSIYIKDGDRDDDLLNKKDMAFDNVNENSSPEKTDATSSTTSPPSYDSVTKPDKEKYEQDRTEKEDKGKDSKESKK
- assay_remarks: E-VIPR optical membrane potential assay with electrical stimulation
- experimental_context: active against one or more sodium channels; Table 3 does not name the assay or NaV subtype; read-out: Binned Activity Data (IC50)
measured_metric: IC50

compound	IC50
COc1ccc(C(=O)N2CCC3(CC2)c2c(Cl)cc(C(F)(F)F)n2CCN3C)cc1C	2000 to 5000 nM

Documented IC50 of CCC(c1ccc(F)cc1)n1cc(C(=O)N2CCC3(CC2)c2ccc(C(F)(F)F)n2CCN3C)nn1 (stereo not shown) : > 5000 nM

Documented IC50 of CCCCc1ccc(C(=O)N2CCC3(CC2)c2ccc(Cl)n2CCN3C)cc1 : 2000 to 5000 nM

Documented IC50 of CC(C)(O)c1ccc(C(=O)N2CCC3(CC2)c2ccc(C(F)(F)F)n2CCN3C2CC2)cc1 : > 5000 nM

Documented IC50 of COc1ccc(C(=O)N2CCC3(CC2)c2ccc(C(=O)C(F)(F)F)n2C[C@@H](C)N3C)cc1C(F)(F)F : 2000 to 5000 nM

Documented IC50 of CN1CCn2c(C(=O)C(F)(F)F)ccc2C12CCN(C(=O)c1ccc(OCC3CC3)c(F)c1)CC2 : ≤ 2000 nM

Documented IC50 of CN1CCn2c(C(F)(F)F)ccc2C12CCN(C(=O)c1ccnc(N3CCCCC3)c1)CC2 : 2000 to 5000 nM

Documented IC50 of Cc1cc(C(=O)N2CCC3(CC2)c2ccc(C(=O)C(F)(F)F)n2CCN3C)ccc1-c1ccccc1 : ≤ 2000 nM

Documented IC50 of CC(C)C(=O)c1ccc2n1CCN(C)C21CCN(C(=O)c2ccc(O)c(Cl)c2)CC1 : 2000 to 5000 nM

----------
- experimental_system: human NaV subtype, like NaV 1.7 (Homo sapiens, UniProt Q15858)
- assay_remarks: E-VIPR optical membrane potential assay with electrical stimulation
- experimental_context: active against one or more sodium channels; Table 3 does not name the assay or NaV subtype; read-out: Binned Activity Data (IC50)
pIC50: −log10 of the molar value.
measured_metric: pIC50

Here is how some compounds turned out for pIC50.
compound	pIC50
CN1CCn2c(C(=O)C(F)(F)F)ccc2C12CCN(C(=O)c1ccc(O)c(Cl)c1)CC2 [Compound 635]	5.30 to 5.70
Cc1cc(C(=O)N2CCC3(CC2)c2ccc(C(=O)C(F)(F)F)n2C(C)(C)CN3C)ccc1OC(C)C [Compound 437]	≥ 5.70
CC(C)Oc1ccc(C(=O)N2CCC3(CC2)c2ccc(C(=O)C(F)(F)F)n2C(C)CN3C)cc1Cl (stereo not drawn) [Compound 325]	≥ 5.70

Form field, pIC50 with human NaV subtype, like NaV 1.7 (Homo sapiens, UniProt Q15858), item CCC(=O)c1ccc2n1CCN(C)C21CCN(C(=O)c2ccc(OC(C)C)c(C)c2)CC1 [Compound 704] : ≥ 5.70

Form field, pIC50 with human NaV subtype, like NaV 1.7 (Homo sapiens, UniProt Q15858), item CN1CCn2c(C(=O)C3CC3)ccc2C12CCN(C(=O)c1ccc(C(C)(C)O)c(F)c1)CC2 [Compound 368] : ≥ 5.70

Form field, pIC50 with human NaV subtype, like NaV 1.7 (Homo sapiens, UniProt Q15858), item CN1CCn2c(C(F)(F)F)ccc2C12CCN(C(=O)c1ccccc1OC(F)(F)F)CC2 [Compound 272] : 5.30 to 5.70

Form field, pIC50 with human NaV subtype, like NaV 1.7 (Homo sapiens, UniProt Q15858), item CC(C)S(=O)(=O)c1ccc(C(=O)N2CCC3(CC2)NC(C)(C)Cn2c(C(=O)C(F)(F)F)ccc23)cc1 [Compound 557] : ≥ 5.70

Form field, pIC50 with human NaV subtype, like NaV 1.7 (Homo sapiens, UniProt Q15858), item CN1CCn2c(C(F)(F)F)ccc2C12CCN(C(=O)c1ccc(S(=O)(=O)C(C)(C)C)cc1)CC2 [Compound 441] : ≥ 5.70

Form field, pIC50 with human NaV subtype, like NaV 1.7 (Homo sapiens, UniProt Q15858), item Cc1cc(C(=O)N2CCC3(CC2)c2ccc(C(=O)C(F)(F)F)n2CCN3C)ccc1OC(C)C [Compound 117] : ≥ 5.70
